These data points were gathered from PubChem BioAssay AID1240.

Here the recorded displacement is given for each entry.
Target: Bcl-2-like protein 10 (Homo sapiens) (UniProt Q9HD36)
Sequence (Q9HD36 whole entry, looked up): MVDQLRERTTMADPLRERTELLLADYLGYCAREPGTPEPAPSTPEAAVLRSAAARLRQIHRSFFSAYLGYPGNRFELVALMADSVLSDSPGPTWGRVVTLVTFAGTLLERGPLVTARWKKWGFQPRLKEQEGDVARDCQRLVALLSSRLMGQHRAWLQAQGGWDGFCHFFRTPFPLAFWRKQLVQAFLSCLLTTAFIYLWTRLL
Test: TR3 peptide-Bcl-B binding displacers, biochemical primary FP assay, phenotype converters (AID 1240);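 further: 0% = Bcl-B with tracer peptide and DMSO and 100% = tracer peptide lacking Bcl-B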
Settings: GST-Bcl-B / FITC-TR3 peptide fluorescence polarization; stronger effect = higher value; compound at 3.75 mg/L
In all, about 50,000 compounds went through this assay and about 800 (1.6%) showed an effect of 50% or more. The sample holds strong results, similar compounds and a random draw of the others, so the mix is not that of the screen.

MOLECULE: Nc1ccc2[nH]nc3c2c1C(=O)c1ccccc1-3
SYSTEM: Bcl-2-like protein 10 (Homo sapiens) (UniProt Q9HD36)
displacement (%): 104
//
MOLECULE: C=CCOc1ccc(/C=C2\C(=O)C(C(=O)OC)=C(C)N2c2ccc(C)cc2)cc1
SYSTEM: Bcl-2-like protein 10 (Homo sapiens) (UniProt Q9HD36)
displacement (%): -24.7
//
MOLECULE: CCOC(=O)c1nc2ccccc2[nH]c1=O
SYSTEM: Bcl-2-like protein 10 (Homo sapiens) (UniProt Q9HD36)
displacement (%): 14.3
//
MOLECULE: Cc1nc2cc(-c3ccc(F)cc3)[nH]n2c(=O)c1C
SYSTEM: Bcl-2-like protein 10 (Homo sapiens) (UniProt Q9HD36)
displacement (%): -7.3
//
MOLECULE: CCOC(=O)c1c(NC(=O)c2cc(Cl)ccc2[N+](=O)[O-])sc(C(=O)N(CC)CC)c1C
SYSTEM: Bcl-2-like protein 10 (Homo sapiens) (UniProt Q9HD36)
displacement (%): -1.1
//
MOLECULE: Cc1ccc(N2C(=O)Cn3c2nc2c3c(=O)n(C)c(=O)n2C)cc1Cl
SYSTEM: Bcl-2-like protein 10 (Homo sapiens) (UniProt Q9HD36)
displacement (%): -12.5
//
MOLECULE: Cc1cccc(OCC(=O)Nc2ccccc2Cl)c1C
SYSTEM: Bcl-2-like protein 10 (Homo sapiens) (UniProt Q9HD36)
displacement (%): -1.5
//
MOLECULE: CCC(=O)Nc1cccc2c1C(=O)c1ccccc1C2=O
SYSTEM: Bcl-2-like protein 10 (Homo sapiens) (UniProt Q9HD36)
displacement (%): 11.2
//
MOLECULE: CCOC(=O)C1=C(C)N=c2s/c(=C\C=C\c3ccco3)c(=O)n2C1c1ccc(OC)cc1 (centres undefined)
SYSTEM: Bcl-2-like protein 10 (Homo sapiens) (UniProt Q9HD36)
displacement (%): 63.9
